Cited source for all entries: patent US20030187007A1

- System under test: CDK2 complexed with cyclin A (Homo sapiens, UniProt P24941)
- Procedure details: Cyclin dependent kinase activity assay, phosphorylation of synthetic peptide PKTPKKAKKLRRR
- Measurement setup: 0.1 mM ATP, read-out: CDK 2 Activity*
Where a name gives a salt, the structure may show the parent alone.
Assay endpoint: IC50

Examples with answers:
Compound	IC50
Nc1ccc(-c2ccc(O)c(-c3ccnc(N)n3)c2)cn1	< 500 nM
NC(=S)N/N=C/c1cc(-c2ccc(O)cc2O)ccc1O	< 500 nM
Nc1nccc(-c2ccc(O)c(-c3cc(Cl)nc(N)n3)c2)n1	< 500 nM
Nc1nc(-c2cccc(CO)c2)cc(-c2cc(-c3ccc(O)cc3)ccc2O)n1	< 500 nM
NC(=S)N/N=C/c1cc(-c2cccnc2)ccc1O	500 to 2000 nM

Answer briefly: IC50 recorded on CDK2 complexed with cyclin A (Homo sapiens, UniProt P24941) for Nc1ccc(-c2cc(-c3ccc(O)cc3)ccc2O)nc1
< 500 nM

Report value: IC50, system: CDK2 complexed with cyclin A (Homo sapiens, UniProt P24941), compound: COC(=O)/C=C/c1ccc(O)c(/C=N/NC(N)=S)c1
> 5000 nM

// fetch IC50; item: NC(=O)N/N=C/c1cc(-c2ccc(O)cc2)ccc1O [Example 22, hydrochloride] ; system: CDK2 complexed with cyclin A (Homo sapiens, UniProt P24941)
< 500 nM

Determine reported IC50 for NC(=S)N/N=C/c1c(O)ccc2ccccc12 ; test system: CDK2 complexed with cyclin A (Homo sapiens, UniProt P24941).
< 500 nM

# lookup: CDK2 complexed with cyclin A (Homo sapiens, UniProt P24941) IC50, key = Nc1nc(-c2ccc([N+](=O)[O-])cc2)cc(-c2cc(-c3ccc(O)cc3)ccc2O)n1
< 500 nM

Give reported IC50 for NC(=S)N/N=C/c1cc(-c2ccc(CO)cc2)ccc1O (CDK2 complexed with cyclin A (Homo sapiens, UniProt P24941))
> 5000 nM

Retrieve IC50 on CDK2 complexed with cyclin A (Homo sapiens, UniProt P24941); query NC(=S)N/N=C/c1cc(Br)ccc1O
2000 to 5000 nM

Specify the recorded IC50 for Nc1nc(NCCO)cc(-c2cc(-c3ccc(O)cc3)ccc2O)n1 , system: CDK2 complexed with cyclin A (Homo sapiens, UniProt P24941).
< 500 nM
